Biological target: T1, UNK ZnF1-3 (human, UniProt Q9C0B0 31-174)
T1 sequence: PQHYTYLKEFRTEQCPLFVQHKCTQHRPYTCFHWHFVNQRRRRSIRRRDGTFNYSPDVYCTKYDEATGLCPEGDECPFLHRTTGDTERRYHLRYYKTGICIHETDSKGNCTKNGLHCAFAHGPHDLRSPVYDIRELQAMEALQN
Test: nsRBNS (natural sequence RNA bind-n-seq); RBNS binding buffer (assumed for nsRBNS): 25 mM Tris pH 7.5, 150 mM KCl, 3 mM MgCl2, 0.01% Triton X-100, 500 ug/ml BSA, 20 U/ml SUPERase-In, 4 C; UNK is unkempt and MSI1 is Musashi-1; names of the RNAs are library labels; protein concentration not given here; high values mean tight binding
Over roughly 24,000 sequences, “enrichment r” has its median near 0.99; the highest 2% begin near 3.7. The full list was thinned out, with the highest values kept by preference.
Reported binding signal values for a set of binders

# binder, binding signal
data = [
    ("chr18:77696836:77696837:-_ENSMUSG00000025427_ENSMUST00000026494|mus_mus|FALSE|FALSE (ssRNA) RNA: GGGAGUUCUACAGUCCGACGAUCUCCUCGGGAUAGAGGGAUGAGAGGGCUUAGGAAUGUAGGGAGGGGAGGGAAGACAGAGAGCAGACUUGAGGUGGGGAAAGAGGCCUGGGGGAGGGGGCACGAGUGACAAGUGAAAGGAUUCAACAGAGGAUUGAGCAUCA", "2.5 enrichment R"),
]

query: Give its binding signal value. Item: chr1:46159212:46159213:+_ENSG00000159596_ENST00000372025|hu_mus|hu_hu_hu_mus_True|58_58 (ssRNA) RNA: GGGAGUUCUACAGUCCGACGAUCUCUGAUCCCUCCCAAGAAAGCUAGGAAACCGGCUCCAUAAGCCAUCUGAGUGAAAGCUAAUAUGGGGAUAUAAGACUUUGUUAUUACCAUGAGAAGUGGGGGAGCAGUAAAGGGGAUUAACAACAGAGGAUUGAGCAUCA
result: 1.4 enrichment R
